Test system: SK-MEL-28 melanoma
Test: NCI tumour cell line growth inhibition, 48 h
This section presents compounds with their documented GI50 values.
Quantity: GI50

- Smiles input: "CN(C)C1CCN(C(=O)c2ccc(NC(=O)Nc3ccc(-c4nc(N5CCOCC5)c5cccn5n4)cc3)cc2)CC1"
  Experimental result: "0.0724 µM"
- Smiles input: "COc1cc(Cl)cc(-c2nn(-c3cccc(NC(=O)c4ccc(N5CCOCC5)c(C(F)(F)F)c4)c3)cc2-c2ccncc2)c1"
  Experimental result: "14.8 µM"
- Smiles input: "O=C(/C=C/c1ccc[nH]1)c1ccc(-n2ccc(C(F)(F)F)n2)cc1"
  Experimental result: "> 100 µM"
- Smiles input: "Cc1nnc(Nc2ccc(NC(=O)Nc3ccc(Cl)cc3)cc2)c2ccccc12"
  Experimental result: "1.63 µM"
- Smiles input: "CCOC(=O)Nc1cc2c(c(N)n1)N=C(c1ccccc1)CO2"
  Experimental result: "15.6 µM"
